conditions: 323.15 K; 100 kPa; Liquid; Vibrating tube method
QUANTITY: mass density (kg/m3)
Unit kg/m3 implied. Number only.

Consider the compound `CCCCCC[n+]1ccn(C)c1.O=S(=O)([N-]S(=O)(=O)C(F)(F)F)C(F)(F)F` and give its measured mass density.
1349.2

New cases:
Consider the compound `CCCC[n+]1ccn(C)c1.O=S(=O)([N-]S(=O)(=O)C(F)(F)F)C(F)(F)F` and give its measured mass density.
1413.3

Consider the compound `CCn1cc[n+](C)c1.O=S(=O)([N-]S(=O)(=O)C(F)(F)F)C(F)(F)F` and give its measured mass density.
1494.1

Consider the compound CCCCCCCC[P+](CC)(CC)CC.O=[N+]([O-])c1cn[n-]c1 [triethyloctylphosphonium 4-nitropyrazolide] and give its measured mass density.
1016.7

Consider the compound `CCCCCCn1cc[n+](C)c1C.O=S(=O)([N-]S(=O)(=O)C(F)(F)F)C(F)(F)F` and give its measured mass density.
1337.6

----------
Below: a set of entries, each annotated with reported mass density.
test: xn = mol fraction of the nth substance listed; conditions: 295.15 K; 100 kPa; Liquid; Vibrating tube method; x1 = 0.25
Unit kg/m3 implied. Number only.

Consider the compound CCCCCCCC[P+](CC)(CC)CC.O=[N+]([O-])c1cn[n-]c1 [triethyloctylphosphonium 4-nitropyrazolide] + CCCCCCn1cc[n+](C)c1C.O=S(=O)([N-]S(=O)(=O)C(F)(F)F)C(F)(F)F and give its measured mass density.
1280.1

Consider the compound CCCCCCn1cc[n+](C)c1C.O=[N+]([O-])c1cn[n-]c1 [1-hexyl-2,3-dimethylimidazolium 4-nitropyrazolide] + CCCCCCCCCCCCCC[P+](CCCCCC)(CCCCCC)CCCCCC.O=S(=O)([N-]S(=O)(=O)C(F)(F)F)C(F)(F)F and give its measured mass density.
1073.2

Consider the compound CCCCCCCC[P+](CC)(CC)CC.O=[N+]([O-])c1cn[n-]c1 [triethyloctylphosphonium 4-nitropyrazolide] + CCCCCC[n+]1ccn(C)c1.O=S(=O)([N-]S(=O)(=O)C(F)(F)F)C(F)(F)F and give its measured mass density.
1286.5

Consider the compound CCCCCCn1cc[n+](C)c1.O=[N+]([O-])c1cn[n-]c1 [1-hexyl-3-methylimidazolium 4-nitropyrazolide] + CCCCCCCCCCCCCC[P+](CCCCCC)(CCCCCC)CCCCCC.O=S(=O)([N-]S(=O)(=O)C(F)(F)F)C(F)(F)F and give its measured mass density.
1073.1

----------
assay: xn = mol fraction of the nth substance listed; conditions: 298.15 K; 100 kPa; Liquid; Cone and plate viscometry; x1 = 0.9
Classification field: enter y for viscosity values not below 300 mPa·s, n for values below it.

Example entries begin here.
Is viscosity for CCCCCCn1cc[n+](C)c1.N#Cc1ccc[n-]1 [1-hexyl-3-methylimidazolium 2-cyanopyrrolide] + CCCCCCCCCCCCCC[P+](CCCCCC)(CCCCCC)CCCCCC.O=S(=O)([N-]S(=O)(=O)C(F)(F)F)C(F)(F)F at or above 300 mPa·s?
n

Is viscosity for CCCCCCn1cc[n+](C)c1.O=[N+]([O-])c1cn[n-]c1 [1-hexyl-3-methylimidazolium 4-nitropyrazolide] + CCCCCCCC[P+](CC)(CC)CC.O=S(=O)([N-]S(=O)(=O)C(F)(F)F)C(F)(F)F at or above 300 mPa·s?
y

Is viscosity for CCCCCCCCCC[P+](CC)(CC)CC.O=[N+]([O-])c1cn[n-]c1 [decyltriethylphosphonium 4-nitropyrazolide] + CC[P+](CC)(CC)COCCOC.O=S(=O)([N-]S(=O)(=O)C(F)(F)F)C(F)(F)F at or above 300 mPa·s?
n

Is viscosity for CCCCCCCC[P+](CC)(CC)CC.O=[N+]([O-])c1cn[n-]c1 [triethyloctylphosphonium 4-nitropyrazolide] + CCCCCCn1cc[n+](C)c1C.O=S(=O)([N-]S(=O)(=O)C(F)(F)F)C(F)(F)F at or above 300 mPa·s?
n

New cases:
Is viscosity for CCCCCCn1cc[n+](C)c1.O=[N+]([O-])c1cn[n-]c1 [1-hexyl-3-methylimidazolium 4-nitropyrazolide] + CCCCCCCCCCCCCC[P+](CCCCCC)(CCCCCC)CCCCCC.O=S(=O)([N-]S(=O)(=O)C(F)(F)F)C(F)(F)F at or above 300 mPa·s?
y
